Experiment: NCI Yeast Anticancer Drug Screen. Data for the mlh1 rad18 strain (AID 175)
Settings: S. cerevisiae mlh1 rad18 strain growth inhibition; at 5.0 µM (retest, dose inferred, filed as 0.5)
The panel holds about 79,000 compounds, 15% with a hit somewhere; the sample as a whole holds those more often. Active and inactive are the calls of the source. Rule as the data show it: active = growth inhibition above about 70%; inactive = the rest.
Please reply with one of these outcomes: YES for active, NO for inactive

- compound: "Cc1[nH]n(C(N)=S)c(=O)c1N=Nc1ccc([N+](=O)[O-])cc1"
  assigned.class: "NO"
- compound: "CCNc1ncnc2c1ncn2Cc1ccco1"
  assigned.class: "NO"
- compound: "O=C(COC(=O)C(c1ccccc1)c1ccccc1)c1ccc(Br)cc1"
  assigned.class: "NO"
- compound: "CC(C)(C)CC(C)(C)NCc1cc(Cl)cc(Cc2cc(Cl)ccc2O)c1O"
  assigned.class: "NO"
- compound: "CCCCCCCCCCCCCCCC[N+](C)(C)C(C)c1ccc(OC)cc1 (stereo not given)"
  assigned.class: "YES"

So what was the verdict on CS(=O)(=O)OCCN(CCOS(C)(=O)=O)c1ccc(C=Nc2ccc(-c3cnc(-c4ccc(Cl)cc4)s3)cc2)c(Cl)c1 in this test?
NO

So what was the verdict on CC12CC[C@@H](C(C)(C)O)C1[C@@H](O)CC1(C)C2CCC2[C@@]3(C)CC[C@H](O)C(C)(C)C3C(O)C[C@]21C (stereo not given in full) in this test?
NO

So what was the verdict on OCCc1c2ccccc2cc2ccccc12 in this test?
NO

So what was the verdict on CC(=O)N/N=C1/CC[C@@]2(C)C(=CC[C@H]3C4CCC(C(C)CCCC(C)C)[C@@]4(C)CCC32)C1(C)C (stereo not given in full) in this test?
NO

So what was the verdict on Cn1ncc2c(NCc3ccc(Cl)cc3)nc(Cl)nc21 in this test?
NO

So what was the verdict on CCSC1(SCC)C(=O)OC2=C(CCCC2)C1N1CCOCC1 (stereo not given) in this test?
NO

* * *

Experiment: NCI Yeast Anticancer Drug Screen. Data for the mlh1 rad18 strain (AID 175)
Conditions: S. cerevisiae mlh1 rad18 strain growth inhibition; at 50.0 µM; stronger effect = higher value
The panel holds about 79,000 compounds, 15% with a hit somewhere; the sample as a whole holds those more often.
// values below are reported growth inhibition
Value expressed in %; do not type the unit.

The following compounds have reported results that may help.
- compound: "CCOP(=O)(OCC)C(NC(=O)OCC(Cl)(Cl)Cl)n1nnc(C(=O)OC)c1C(=O)OC (stereo not given)"
  unit.spec: "%"
  growth inhibition: -1.15
- compound: "CC/C(=C(/CC)c1ccc([O-])cc1)c1ccc([O-])cc1.CC/C(=C(\\CC)c1ccc([O-])cc1)c1ccc([O-])cc1.O=C([CH-]C(=O)c1ccccc1)c1ccccc1.O=C([CH-]C(=O)c1ccccc1)c1ccccc1.O=C([CH-]C(=O)c1ccccc1)c1ccccc1.O=C([CH-]C(=O)c1ccccc1)c1ccccc1.[Ti+4].[Ti+4]"
  unit.spec: "%"
  growth inhibition: 80

Query (compound): CN(C)C(=S)S(=O)(=O)CCCCS(=O)(=O)C(=S)N(C)C ; field requested: growth inhibition
81.8

Query (compound): CSc1ccc(/C=C2\CN(C)C/C(=C\c3ccc(SC)cc3)C2=O)cc1 ; field requested: growth inhibition
82.8

Query (compound): CC(C)CCOC(=O)Nc1cccc(Cl)c1 ; field requested: growth inhibition
44

Query (compound): COc1cnc2cc3c4c(cccc4c2c1)NC3=O ; field requested: growth inhibition
86

Query (compound): Cc1cc(C)c(Cc2ccccc2O)cc1Cc1ccccc1O ; field requested: growth inhibition
89.7

Query (compound): CC(C)(C)c1ccc(O)c(O)c1 ; field requested: growth inhibition
81.2

Query (compound): CCCCCN(CCCCC)C(=O)CCl ; field requested: growth inhibition
85.3

Query (compound): CCCCCCCCN1C(=O)c2ccccc2S1(=O)=O ; field requested: growth inhibition
76.2

* * *

// values below are reported growth inhibition
Assay: NCI Yeast Anticancer Drug Screen. Data for the bub3 strain (AID 167)
Details: S. cerevisiae bub3 mutant strain, at 50.0 µM (retest, dose inferred, filed as 5.0), stronger effect = higher value
Procedure: Growth inhibition of yeast strains with defined genetic alterations is measured as a screen for potential anti-cancer activity. Selected strains with alterations in DNA damage repair or cell cycle control were exposed to compounds and growth inhibition was measured relative to vehicle treated controls. The strain used in this assay is bub3
About 79,000 compounds went through this panel and 15% of them were active in at least one assay; those are over-represented in the sample as a whole. Activity calls are given as the source filed them. Rule as the data show it: active = growth inhibition above about 70%; inactive = the rest.

- compound: "OCCN1COc2cc3c(cc2C1)OCN(CCO)C3"
  result: "-3% (inactive)"
- compound: "CCC(C)(C)c1cc(Br)c(NS(=O)(=O)c2ccc(NC(C)=O)cc2)c(Br)c1"
  result: "62% (inactive)"
- compound: "N#CC(C#N)=C/C=C/c1c(Cl)cccc1Cl"
  result: "79% (active)"

From here, focus on the item given below.
Query (compound): C/C(O)=C(/C=N/C(=S)Nc1ccc(S(N)(=O)=O)cc1)C(=O)Nc1ccccc1C ; field requested: growth inhibition
-6% (inactive)

* * *

Experiment: NCI Yeast Anticancer Drug Screen. Data for the bub3 strain (AID 167)
Settings: S. cerevisiae bub3 mutant strain, at 5.0 µM (retest, dose inferred, filed as 0.5), stronger effect = higher value
Compounds without any hit were thinned out: in the full panel of roughly 79,000, 15% have a hit.
metric: growth inhibition (%)
Value expressed in %; do not type the unit.

Query (molecule): CCc1nc(N)nc(N)c1-c1ccc(N(C)Cc2ccccc2)c([N+](=O)[O-])c1 ; field requested: growth inhibition
52

Query (molecule): CC1OC(C)C(O)C2=C1C(=O)c1ccccc1C2=O (stereo not drawn) ; field requested: growth inhibition
14

Query (molecule): CCCCNCc1c(O)ccc2ccccc12 ; field requested: growth inhibition
21

Query (molecule): CCOC(CCCl)OCC ; field requested: growth inhibition
1

Query (molecule): Cc1ccc(-c2c(C#N)c(S)n(NS(=O)(=O)c3ccccc3)c(=O)c2C#N)cc1 ; field requested: growth inhibition
53

* * *

Assay: NCI Yeast Anticancer Drug Screen. Data for the rad50 strain (AID 155);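 also: 0% = growth of vehicle-only cultures of the same strain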
Conditions: S. cerevisiae rad50 strain growth inhibition; at 50.0 µM (retest, dose inferred, filed as 5.0); stronger effect = higher value
This is part of a sample that, as a whole, favours compounds with a hit. Of some 79,000 tested, about 15% had one in any assay.
// values below are reported growth inhibition
Value expressed in %; do not type the unit.

The following compounds have reported results that may help.
- compound: "COc1ccccc1Nc1nc(SC)ncc1SC"
  growth inhibition, %: 91
- compound: "CC(C)OP(=O)(OC(C)C)/C(I)=N/Nc1ccc([N+](=O)[O-])cc1"
  growth inhibition, %: -1
- compound: "CCC(c1ccc(Cl)cc1)C(C#N)c1ccc(Cl)cc1 (stereo unspecified)"
  growth inhibition, %: 55
- compound: "c1ccc(-c2cc(Nc3ccc4c(c3)OCO4)c3cc(C4CCCCC4)ccc3n2)cc1"
  growth inhibition, %: 95
- compound: "O=C(CC(=O)c1ccccc1)CC(O)(c1ccccc1)c1ccccc1"
  growth inhibition, %: 90

Query (compound): OCC1CC[N-]CC1.OCC1CC[N-]CC1.[Cl][Pt+2]([Cl])([Cl])[Cl] ; field requested: growth inhibition
99

Query (compound): Cc1cccc(NC(=O)c2cc3cc(N=Nc4ccccc4Cl)ccc3oc2=O)c1 ; field requested: growth inhibition
6

* * *

Experiment: NCI Yeast Anticancer Drug Screen. Data for the rad50 strain (AID 155);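 also: 0% = growth of vehicle-only cultures of the same strain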
Settings: S. cerevisiae rad50 strain growth inhibition; at 50.0 µM (retest, dose inferred, filed as 5.0); stronger effect = higher value
This is part of a sample that, as a whole, favours compounds with a hit. Of some 79,000 tested, about 15% had one in any assay.
Please note: met applies when growth inhibition is 60% or greater, and not met applies otherwise.

Study these solved cases before continuing.
- molecule: "C=CC(=O)c1ccc2c(c1)OCCOCCOCCOCCOCCO2"
  assigned.class: "met"
- molecule: "Cc1ccc(C)c(C(=O)CCN)c1"
  assigned.class: "not met"
- molecule: "COc1cc(OC)c(C/C=C/c2ccccc2)cc1O"
  assigned.class: "met"
- molecule: "CNCC(O)c1cccc(O)c1 (stereo unspecified)"
  assigned.class: "not met"
- molecule: "O=C1C2C3C=CC(C2C(=O)N1CN1CCOCC1)C1C2C(=O)N(CN4CCOCC4)C(=O)C2C31 (stereo unspecified)"
  assigned.class: "not met"
- molecule: "CN(C)c1ccc(-c2c(C#N)c(-c3ccccc3)n(NS(=O)(=O)c3ccccc3)c(=O)c2C#N)cc1"
  assigned.class: "not met"

Item [Cl][Pt+2][Cl].[NH-]c1cc2ccccc2cc1[NH-] with growth inhibition of 60% or above?
not met

* * *

// values below are reported growth inhibition
Experiment: NCI Yeast Anticancer Drug Screen. Data for the mec2-1 strain (AID 157)
Details: S. cerevisiae mec2-1 strain, at 5.0 µM (retest, dose inferred, filed as 0.5), stronger effect = higher value
The panel holds about 79,000 compounds, 15% with a hit somewhere; the sample as a whole holds those more often.
Value expressed in %; do not type the unit.

- compound: "CC1([N+](=O)[O-])C(=O)C2(N3CCCCC3)CCCC2C1c1ccccc1 (stereo not given)"
  unit.spec: "%"
  growth inhibition: 3

From here, focus on the item given below.
Query (compound): S=C(N/N=C(/c1ccccc1)c1ccccn1)Nc1ccccc1 ; field requested: growth inhibition
14
